The origin of these recorded values is patent US9125913B2.

# Test system: GST-Bcl-2
# measurement-description: TR-FRET binding assay, Bcl-2
# cond: TR-FRET Ki values
measured-parameter: Binding selectivity ratio (Bcl-XL Ki/Bcl-2 Ki)
Response field accepts a number only; no unit should be typed.

CN1CCC(COc2ccc(S(=O)(=O)NC(=O)c3ccc(N4CCN(CC5=C(c6ccc(Cl)cc6)CC(C)(C)CC5)CC4)cc3Oc3ccc4[nH]ccc4c3)cc2[N+](=O)[O-])CC1    148.8

Task item: Tell me the measured Binding selectivity ratio (Bcl-XL Ki/Bcl-2 Ki) of `CN1CCN(CCCNc2ccc(S(=O)(=O)NC(=O)c3ccc(N4CCN(CC5=C(c6ccc(Cl)cc6)CC(C)(C)CC5)CC4)cc3Oc3cccc4[nH]ccc34)cc2[N+](=O)[O-])CC1` , please.
Reply: 138.3

* * *

# System: FL5.12/Bcl-2 cells
# measurement-description: FL5.12/Bcl-2 cell viability assay
# Type: cell-based, murine
# cond: ratio of canine platelet EC50 to FL5.12/Bcl-2 EC50
measured-parameter: Selectivity Ratio (Platelet EC50/FL5.12/Bcl-2 EC50)

Below are worked cases with known answers.
O=C(NS(=O)(=O)c1ccc(NCC2CCOCC2)c([N+](=O)[O-])c1)c1ccc(N2CCN(Cc3cc(CCN4CCCC4)ccc3-c3ccc(Cl)cc3)CC2)cc1Oc1cccc2[nH]ccc12    >1020
CN(C)CCOc1cccc(-c2ccc(Cl)cc2)c1CN1CCN(c2ccc(C(=O)NS(=O)(=O)c3ccc(NCC4CCOCC4)c([N+](=O)[O-])c3)c(Oc3cccc4[nH]ccc34)c2)CC1    >2000

Task item: Selectivity Ratio (Platelet EC50/FL5.12/Bcl-2 EC50) of `O=C(NS(=O)(=O)c1ccc(NCC2CCOCC2)c([N+](=O)[O-])c1)c1ccc(N2CCN(Cc3c(OCCN4CCOCC4)cccc3-c3ccc(Cl)cc3)CC2)cc1Oc1cccc2[nH]ccc12` on FL5.12/Bcl-2 cells?
Reply: >1597

Task item: Enter reported Selectivity Ratio (Platelet EC50/FL5.12/Bcl-2 EC50) observed with FL5.12/Bcl-2 cells for `O=C(NS(=O)(=O)c1ccc(NCCCN2CCCC2)c([N+](=O)[O-])c1)c1ccc(N2CCN(CC3=C(c4ccc(Cl)cc4)CCC3)CC2)cc1Oc1cccc2[nH]ccc12`
Reply: >251

Task item: What reported Selectivity Ratio (Platelet EC50/FL5.12/Bcl-2 EC50) corresponds to `CN(C)CCOc1ccc(-c2ccc(Cl)cc2)c(CN2CCN(c3ccc(C(=O)NS(=O)(=O)c4ccc(NCC5CCOCC5)c([N+](=O)[O-])c4)c(Oc4ccc5[nH]ccc5c4)c3)CC2)c1` on FL5.12/Bcl-2 cells?
Reply: >1618

* * *

# Test system: GST-Bcl-2
# measurement-description: TR-FRET binding assay, Bcl-2
# cond: TR-FRET Ki values
// Binding selectivity ratio (Bcl-XL Ki/Bcl-2 Ki) lookup, one value per entry

Examples from the recorded data:
O=C(NS(=O)(=O)c1ccc(-n2ncc([N+](=O)[O-])n2)cc1)c1ccc(N2CCN(Cc3ccccc3-c3ccc(Cl)cc3)CC2)cc1Oc1ccccc1 [Example 31]    >18.0
CN1CCC(Nc2ccc(S(=O)(=O)NC(=O)c3ccc(N4CCN(CC5=C(c6ccc(Cl)cc6)CCCCC5)CC4)cc3Oc3cccc4[nH]ccc34)cc2[N+](=O)[O-])CC1 [Example 147]    >1284.0
CC1(C)CCC(CN2CCN(c3ccc(C(=O)NS(=O)(=O)c4ccc(OCC5CCOCC5)c(C(N)=O)c4)c(Oc4ccc5[nH]ccc5c4)c3)CC2)=C(c2ccc(Cl)cc2)C1 [EXAMPLE 357]    >493.9
O=C(NS(=O)(=O)c1ccc(NCC2CCOCC2)c([N+](=O)[O-])c1)c1ccc(N2CCN(CC3=C(c4ccc(Cl)cc4)CCC(N4CCCC4)C3)CC2)cc1Oc1ccc2[nH]ccc2c1 (centres unmarked) [EXAMPLE 272]    >58011.8

Task item: # get_value(readout='Binding selectivity ratio (Bcl-XL Ki/Bcl-2 Ki)', item= CN1CCC(Nc2ccc(S(=O)(=O)NC(=O)c3ccc(N4CCN(CC5=C(c6ccc(Cl)cc6)CCC(O)C5)CC4)cc3Oc3ccc4[nH]ccc4c3)cc2[N+](=O)[O-])CC1 (centres unmarked) [EXAMPLE 224] )
Reply: >99.9
